- System: Klebsiella pneumoniae
- assay.name: In vivo activity against lethal intraperitoneal Klebsiella pneumoniae infection in mice, single oral or subcutaneous dose
- Set-up: species or system Klebsiella pneumoniae (infection in Charles River CD-1 mice)
- test.conditions: CD-1 mice, single oral dose, pooled data of three tests, (95% Conf. Lim.), read-out: ED50, Single Oral Dose
Each entry below carries its reported ED50.

molecule: CO/N=C(\C(=O)N[C@@H]1C(=O)N2C(C(=O)OCOC(=O)C34CC5CC(CC(C5)C3)C4)=C(CSc3cnns3)CS[C@H]12)c1csc(N)n1
ED50: 2 to 4 mg/kg

Next item in the queue.
Qu. Any idea what its ED50 is? The molecule is `COCOC(=O)C1=C(CSc2cnns2)CS[C@@H]2[C@H](NC(=O)/C(=N\OC)c3csc(N)n3)C(=O)N12`
Ans. 8 to 16 mg/kg

###

ED50 reference
- Test system: Klebsiella pneumoniae
- assay.name: In vivo activity against lethal intraperitoneal Klebsiella pneumoniae infection in mice, single oral or subcutaneous dose
- Design: species or system Klebsiella pneumoniae (infection in Charles River CD-1 mice)
- test.conditions: CD-1 mice, single oral dose, pooled data of three tests, (95% Conf. Lim.), read-out: ED50, Single Oral Dose

Check out these entries, answers already filled in.
molecule: CCCCCCCCCCCCCC(=O)OCOC(=O)C1=C(CSc2cnns2)CS[C@@H]2[C@H](NC(=O)/C(=N\OC)c3csc(N)n3)C(=O)N12
tested.target: Klebsiella pneumoniae
ED50: 8 to 16 mg/kg

molecule: CO/N=C(\C(=O)N[C@@H]1C(=O)N2C(C(=O)OC(C)OC(C)=O)=C(CSc3cnns3)CS[C@H]12)c1csc(N)n1 (stereo partly drawn)
tested.target: Klebsiella pneumoniae
ED50: 2 to 4 mg/kg

Qu. Give the measured ED50 of CCOC(=O)OC(C)OC(=O)C1=C(CSc2cnns2)CS[C@@H]2[C@H](NC(=O)/C(=N\OC)c3csc(N)n3)C(=O)N12 (stereo partly drawn) .
Ans. 1 to 2 mg/kg

###

- Tested on: Klebsiella pneumoniae
- assay.name: In vivo activity against lethal intraperitoneal Klebsiella pneumoniae infection in mice, single oral or subcutaneous dose
- Parameters: species or system Klebsiella pneumoniae (infection in Charles River CD-1 mice)
- test.conditions: CD-1 mice, single oral dose, pooled data of three tests, (95% Conf. Lim.), read-out: ED50, Single Oral Dose
measure.name: ED50

Past entries and their recorded results:
molecule: CCCCCCCCCCOCOC(=O)C1=C(CSc2cnns2)CS[C@@H]2[C@H](NC(=O)/C(=N\OC)c3csc(N)n3)C(=O)N12
tested.target: Klebsiella pneumoniae
ED50: 8 to 16 mg/kg

molecule: CO/N=C(\C(=O)N[C@@H]1C(=O)N2C(C(=O)O)=C(CSc3cnns3)CS[C@H]12)c1csc(N)n1 [Unesterified acid, reference compound]
tested.target: Klebsiella pneumoniae
ED50: 8 to 16 mg/kg

molecule: CO/N=C(\C(=O)N[C@@H]1C(=O)N2C(C(=O)OC3OC(=O)c4ccccc43)=C(CSc3cnns3)CS[C@H]12)c1csc(N)n1 (some centres unmarked)
tested.target: Klebsiella pneumoniae
ED50: 8 to 16 mg/kg

Qu. For the molecule shown here, `CO/N=C(\C(=O)N[C@@H]1C(=O)N2C(C(=O)OCOC(=O)c3ccccc3)=C(CSc3cnns3)CS[C@H]12)c1csc(N)n1` , give the reported ED50.
Ans. 4 to 8 mg/kg

Qu. Lookup `CO/N=C(\C(=O)N[C@@H]1C(=O)N2C(C(=O)OCOC(C)=O)=C(CSc3cnns3)CS[C@H]12)c1csc(N)n1`
Ans. 8 to 16 mg/kg
